test-summary: Phase I single ascending dose study in humans, pharmacokinetics
Assay type: in vivo, human
applied-conditions: human, plasma; single oral 15 mg capsule, healthy humans, mean
Where a name gives a salt, the structure may show the parent alone.
quantity: Cmax (ng/mL)
Numeric answer only, unit ng/mL assumed.

Exam item: Report Cmax for COc1ccc(CC(=O)O)cc1Oc1ccc(NC(=O)C(C)(C)C)cc1CSC(C)(C)C [Compound 2, sodium salt] please.
Marked response: 8.31

====

assayed-system: rat DP2 (Rattus norvegicus (Rat), UniProt Q6XKD3)
Sequence (Q6XKD3 whole entry): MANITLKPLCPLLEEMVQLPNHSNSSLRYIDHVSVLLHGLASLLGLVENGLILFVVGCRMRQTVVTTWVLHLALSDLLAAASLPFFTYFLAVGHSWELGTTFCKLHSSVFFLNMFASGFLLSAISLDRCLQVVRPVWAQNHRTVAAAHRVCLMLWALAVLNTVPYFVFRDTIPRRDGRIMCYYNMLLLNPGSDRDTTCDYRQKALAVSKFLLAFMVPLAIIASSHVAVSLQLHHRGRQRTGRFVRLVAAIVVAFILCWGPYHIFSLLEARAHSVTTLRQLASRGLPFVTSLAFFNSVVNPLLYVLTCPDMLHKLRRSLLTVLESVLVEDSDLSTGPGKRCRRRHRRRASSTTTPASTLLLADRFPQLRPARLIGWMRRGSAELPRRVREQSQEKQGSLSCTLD
test-summary: In vitro DP2/CRTH2 radioligand ([3H]PGD2) membrane binding assay
applied-conditions: average; 0.2% species-specific albumin; read-out: IC50, radioligand membrane binding on rat DP2
quantity: pIC50
pIC50 is defined as minus the log10 of a concentration measured in mol/L.

Exam item: Param readout= pIC50; system= rat DP2 (Rattus norvegicus (Rat), UniProt Q6XKD3); entry= COc1ccc(CC(=O)O)cc1Oc1ccc(NC(=O)C(C)(C)C)cc1CSC(C)(C)C ; returns value.
Marked response: 7.98
